Source of measurements: the supplement of paper PMC10307832

Below, each entry is listed alongside its reported relative viability.
test system: A549; assay: relative viability (nuclei count vs DMSO), 5 days (fraction); higher = more cells survive; settings: first compound 2.53 µM
API doc: respond with a numeric literal and nothing else, no unit.

Previously resolved entries follow.
O=c1cc(-c2cccc3c2Sc2ccccc2S3)oc(N2CCOCC2)c1 + CS(=O)(=O)N1CCN(Cc2cc3nc(-c4cccc5[nH]ncc45)nc(N4CCOCC4)c3s2)CC1 [Pictilisib] (partner 1 µM): 0.481
COc1nc(C)cnc1NS(=O)(=O)c1cccnc1-c1ccc(-c2nnco2)cc1 [Zibotentan] + N=C(N)NC(=N)NCCc1ccccc1 [Phenformin] (partner 250 µM): 0.135
COc1nc(C)cnc1NS(=O)(=O)c1cccnc1-c1ccc(-c2nnco2)cc1 [Zibotentan] + CS(=O)(=O)N1CCN(Cc2cc3nc(-c4cccc5[nH]ncc45)nc(N4CCOCC4)c3s2)CC1 [Pictilisib] (partner 1 µM): 0.519
O=c1cc(-c2cccc3c2Sc2ccccc2S3)oc(N2CCOCC2)c1 + CS(=O)(=O)CCNCc1ccc(-c2ccc3ncnc(Nc4ccc(OCc5cccc(F)c5)c(Cl)c4)c3c2)o1 [Lapatinib] (partner 2 µM): 0.87

Give its relative viability value. Item: COc1nc(C)cnc1NS(=O)(=O)c1cccnc1-c1ccc(-c2nnco2)cc1 [Zibotentan] + CC1(C)CCC(c2ccc(Cl)cc2)=C(CN2CCN(c3ccc(C(=O)NS(=O)(=O)c4ccc(N[C@H](CCN5CCOCC5)CSc5ccccc5)c(S(=O)(=O)C(F)(F)F)c4)cc3)CC2)C1 [Navitoclax] (partner 0.5 µM)
1.2
